molecular target: human ether-à-go-go-related gene (hERG) potassium channel (human, UniProt Q12809); assay: primary screen, population patch clamp on CHO cells stably expressing hERG; higher = less effect of the substance;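 also: peak tail current of the secondary pulse compared with the same well before compound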
Sequence (Q12809 whole entry, looked up): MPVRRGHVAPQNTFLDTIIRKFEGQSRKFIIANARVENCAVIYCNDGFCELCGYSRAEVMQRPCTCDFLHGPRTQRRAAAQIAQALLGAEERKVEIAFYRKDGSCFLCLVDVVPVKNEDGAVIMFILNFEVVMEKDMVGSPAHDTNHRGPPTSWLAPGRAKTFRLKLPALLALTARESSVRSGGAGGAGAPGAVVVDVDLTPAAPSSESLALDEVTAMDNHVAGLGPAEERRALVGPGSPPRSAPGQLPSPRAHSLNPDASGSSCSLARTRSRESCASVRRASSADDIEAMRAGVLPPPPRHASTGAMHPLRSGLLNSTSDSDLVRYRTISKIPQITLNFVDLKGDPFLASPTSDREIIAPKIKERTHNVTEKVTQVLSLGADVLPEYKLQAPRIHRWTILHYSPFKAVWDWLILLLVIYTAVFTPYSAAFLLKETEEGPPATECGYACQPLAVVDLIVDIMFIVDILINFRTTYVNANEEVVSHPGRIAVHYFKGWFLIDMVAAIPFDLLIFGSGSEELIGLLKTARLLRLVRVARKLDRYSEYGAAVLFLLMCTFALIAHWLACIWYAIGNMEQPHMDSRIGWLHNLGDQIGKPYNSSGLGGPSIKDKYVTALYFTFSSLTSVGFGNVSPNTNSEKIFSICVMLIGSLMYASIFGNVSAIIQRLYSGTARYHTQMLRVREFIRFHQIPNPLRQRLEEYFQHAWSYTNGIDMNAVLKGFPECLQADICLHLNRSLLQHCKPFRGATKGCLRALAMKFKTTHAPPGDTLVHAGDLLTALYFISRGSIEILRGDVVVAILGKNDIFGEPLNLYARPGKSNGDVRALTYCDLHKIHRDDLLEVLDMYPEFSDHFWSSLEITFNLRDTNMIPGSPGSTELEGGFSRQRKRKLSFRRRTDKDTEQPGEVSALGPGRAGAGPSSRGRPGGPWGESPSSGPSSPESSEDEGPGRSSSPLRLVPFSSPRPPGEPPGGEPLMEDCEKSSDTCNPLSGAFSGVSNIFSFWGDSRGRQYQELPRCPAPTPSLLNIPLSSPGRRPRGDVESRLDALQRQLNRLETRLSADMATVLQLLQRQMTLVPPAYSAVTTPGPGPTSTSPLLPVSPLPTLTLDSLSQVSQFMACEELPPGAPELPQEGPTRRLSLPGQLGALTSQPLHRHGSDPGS
In all, about 310,000 compounds went through this assay and about 14,000 (4.5%) showed an effect of 50% or more. The effect is printed as a negative number. The list comes from a sample in which strong results are over-represented; it also holds close analogues and randomly drawn compounds.
Below, each entry is listed with its recorded hERG current change (%, negative = inhibition) at 10uM.
Your answer is read as %, so omit the unit and give the number.

Known results for molecules:
molecule=CC(=O)c1cccc(NC(=O)C2CCN(C(=O)c3ccccc3Cl)CC2)c1 systemundertest="human ether-à-go-go-related gene (hERG) potassium channel (human, UniProt Q12809)" quantityunit=% resultnumber=-0.359
molecule=O=C(Nc1cccc([N+](=O)[O-])c1)N1CCN(c2ccccc2)CC1 systemundertest="human ether-à-go-go-related gene (hERG) potassium channel (human, UniProt Q12809)" quantityunit=% resultnumber=-38.7
molecule="Cl.OC(CNC1CCCC1)COc1ccccc1Br (stereo not drawn)" systemundertest="human ether-à-go-go-related gene (hERG) potassium channel (human, UniProt Q12809)" quantityunit=% resultnumber=7.79
molecule="O=C(c1ccncc1)c1ccc(N2CCN(C3CC(=O)N(Cc4ccccc4)C3=O)CC2)cc1 (stereo not drawn)" systemundertest="human ether-à-go-go-related gene (hERG) potassium channel (human, UniProt Q12809)" quantityunit=% resultnumber=-76.2
molecule=CCCCn1c(N)c(N(CCOC)C(=O)c2ccco2)c(=O)[nH]c1=O systemundertest="human ether-à-go-go-related gene (hERG) potassium channel (human, UniProt Q12809)" quantityunit=% resultnumber=0.12

Query block: Lab request: please report hERG current change (%, negative = inhibition) at 10uM under test system human ether-à-go-go-related gene (hERG) potassium channel (human, UniProt Q12809) for CC1(C)Cc2nc3oc4c(N(CCO)Cc5ccccc5)ncnc4c3cc2CO1;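 also: peak tail current of the secondary pulse compared with the same well before compound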
Result block: -65.6

Query block: Moving on to O=P(O)(CCc1ccccn1)CN1CCOCC1
Result block: 6.28

Query block: Moving on to COc1ccc(NC(=O)COC(=O)C2CC(=O)N(Cc3ccc(C)cc3)C2)cc1 (stereo not drawn)
Result block: -12.7

Query block: Moving on to O=C(c1ccncc1)c1ccc(N2CCN(C3CC(=O)N(Cc4cccs4)C3=O)CC2)cc1 (stereo not drawn)
Result block: -79.3

Query block: Moving on to COc1ccc(N2C(=O)CC(N3CCN(c4ccc(C(=O)c5cccnc5)cc4)CC3)C2=O)cc1 (stereo not drawn)
Result block: -48.2

Query block: Moving on to CCCCC(=O)Nc1c(O)c2ccccc2[nH]c1=O
Result block: -0.31

Query block: Moving on to CC1(C)Cc2nc3oc4c(NCc5ccccc5)ncnc4c3cc2CO1
Result block: -10.7

Query block: Moving on to COc1ccc(CC(=O)NCc2nnc(SCC(=O)Nc3nccs3)n2C)cc1
Result block: 17.3

Query block: Moving on to Cc1ccc(S(=O)(=O)CCC(=O)OCC(=O)N2c3ccccc3NC(=O)C2(C)C)cc1
Result block: 14

Query block: Moving on to CC(Cc1n[nH]c(=S)o1)c1ccccc1 (stereo not drawn)
Result block: 20.7

Query block: Moving on to COc1ccc(COC(=O)C2CC(=O)N(Cc3ccccc3)C2)cc1 (stereo not drawn)
Result block: -34.1

Query block: Moving on to CCc1ccc(N2CC(C(=O)OCC(=O)Nc3ccc([N+](=O)[O-])cc3)CC2=O)cc1 (stereo not drawn)
Result block: -36.9

Query block: Moving on to Cc1cccc(N2CC(C(=O)O)CC2=O)c1 (stereo not drawn)
Result block: -15.2

Query block: Moving on to O=C1CC(N2CCN(c3ccc(O)cc3)CC2)C(=O)N1Cc1cccs1 (stereo not drawn)
Result block: -7.15

Query block: Moving on to CC(C)Cn1c(N)c(C(=O)COC(=O)CC23CC4CC(CC(C4)C2)C3)c(=O)n(C)c1=O
Result block: -16.2

Query block: Moving on to CC1=N/C(=C/c2cc(Br)cc(Br)c2O)C(=O)O1
Result block: 17

Query block: Moving on to O=C(c1ccc(N2CCN(C3CC(=O)N(c4ccc(F)cc4)C3=O)CC2)cc1)c1cccnc1 (stereo not drawn)
Result block: -50.6

Query block: Moving on to Cc1ccc(-n2c(SCC(=O)N/N=C/c3c(C)nn(-c4ccccc4)c3C)nc3ccccc3c2=O)cc1
Result block: -7.33

Query block: Moving on to Cc1ccc(NC(=O)c2sc(C)nc2C)c(C)c1
Result block: 1.97

Query block: Moving on to CCN1C(=O)CC(N2CCN(c3ccc(C(=O)c4ccncc4)cc3)CC2)C1=O (stereo not drawn)
Result block: -12.3
